# EXPERIMENTAL_TARGET: CXCR4 receptor (UniProt P61073 1-352, limits assumed)
# Sequence (P61073 whole entry): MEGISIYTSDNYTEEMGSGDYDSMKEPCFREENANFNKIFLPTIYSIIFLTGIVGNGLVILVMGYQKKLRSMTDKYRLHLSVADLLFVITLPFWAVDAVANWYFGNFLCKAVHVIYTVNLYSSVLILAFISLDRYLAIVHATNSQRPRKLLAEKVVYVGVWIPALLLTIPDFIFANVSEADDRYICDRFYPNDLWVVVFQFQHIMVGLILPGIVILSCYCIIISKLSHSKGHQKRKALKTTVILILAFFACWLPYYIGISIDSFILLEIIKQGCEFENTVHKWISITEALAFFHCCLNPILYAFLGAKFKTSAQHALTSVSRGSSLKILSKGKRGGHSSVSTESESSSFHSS
# MEASUREMENT_NOTES: cell-based or functional assay
Measured Concentration, required for complete inhibition of [Ca^2+I] release (SDF-1α-induced) accompanies every entry in the list below.
Record the value in µM, omitting the unit from your answer.

| BINDER | RECORDED_MEASUREMENT |
| --- | --- |
| LLFVITLPFWAVDAVANWYFGN [F-2-1] | 5 |

# next binder below
Task: Entry VILILAFFACWLPYYIGISID [F-6-1] : reported Concentration, required for complete inhibition of [Ca^2+I] release (SDF-1α-induced) = ?
Output: 10
